- target.or.system: Oxytocin receptor (Homo sapiens) (UniProt P30559)
- Sequence (P30559 whole entry, looked up): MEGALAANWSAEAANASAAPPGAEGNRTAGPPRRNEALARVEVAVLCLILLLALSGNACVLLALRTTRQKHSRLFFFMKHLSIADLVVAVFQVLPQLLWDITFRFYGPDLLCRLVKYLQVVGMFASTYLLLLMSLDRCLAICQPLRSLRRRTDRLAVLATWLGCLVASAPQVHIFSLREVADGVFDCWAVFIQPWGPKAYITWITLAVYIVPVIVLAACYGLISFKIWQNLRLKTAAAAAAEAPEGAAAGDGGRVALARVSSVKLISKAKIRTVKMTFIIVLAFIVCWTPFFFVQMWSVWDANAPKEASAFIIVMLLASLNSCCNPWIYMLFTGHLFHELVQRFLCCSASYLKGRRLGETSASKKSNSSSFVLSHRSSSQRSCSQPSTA
- protocol: oxytocin receptor activation by calcium flux – fluorescence, CHO-OTR cells, Fluo-8 calcium, primary screen (AID 2435);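 further: peak over basal fluorescence ratio from a 100 s FLIPR kinetic read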
- assay.conditions: Fluo-8 calcium fluorescence, at 3 µM, normalized: DMSO 0%, oxytocin 100%
In all, about 320,000 compounds went through this assay and about 1,000 (0.31%) were called active.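 How the source made its calls: active means activation above the mean of all tested compounds plus 3 SD, cutoff set per screening run (cut at about 20% in these data); inactive means the rest.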 The entries come from a sample that favours actives as a whole.
Respond only with the outcome that fits, drawn from 1 (active), -1 (inactive)

For orientation, consider the following solved cases.
1. COc1ccc(C(C#N)N2N=C(C)CC2(C)C)cc1 (stereo not given) :: -1
2. COc1ccc(NS(=O)(=O)c2ccc(NC(=O)c3ccc(N(C)S(C)(=O)=O)cc3)cc2)cc1 :: -1
3. Cc1cc(F)ccc1N1CCC(N2CCN(C)C(CCO)C2)CC1 (stereo not given) :: -1
4. O=S(=O)(NCCOc1cccc2cccnc12)c1ccc(F)cc1 :: -1
5. NS(=O)(=O)c1ccc(CNC(=O)c2cccc(S(=O)(=O)N3CCc4ccccc43)c2)cc1 :: -1

Now take the following compound into account.
Hello, I am checking results. What call was entered for CCNc1ccc(C(=O)OCC(=O)N2c3ccccc3NC(=O)C2(C)C)cc1[N+](=O)[O-] ?
-1

----------
- target.or.system: Oxytocin receptor (Homo sapiens) (UniProt P30559)
- protocol: oxytocin receptor activation by calcium flux – fluorescence, CHO-OTR cells, Fluo-8 calcium, primary screen (AID 2435);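 further: peak over basal fluorescence ratio from a 100 s FLIPR kinetic read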
- assay.conditions: Fluo-8 calcium fluorescence, at 3 µM, normalized: DMSO 0%, oxytocin 100%
The whole screen tested about 320,000 compounds, of which about 1,000 (0.31%) were called active.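 How the source made its calls: active means activation above the mean of all tested compounds plus 3 SD, cutoff set per screening run (cut at about 20% in these data); inactive means the rest.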 For the sample, actives were picked, then their nearest neighbours and some compounds at random.
Assign a class; possible classes are 1 (yes) = active, 0 (no) = inactive

Consider the worked cases shown below.
1) Cc1cccc(CN2CCC(CNC(=O)Nc3ccc(F)c(Cl)c3)CC2)c1 :: 1 (yes)
2) O=C(NCC1CCN(Cc2ccccc2Cl)CC1)Nc1cccc(Cl)c1 :: 0 (no)
3) COc1ccc(Cl)cc1NC(=O)NCC1CCN(Cc2ccccc2F)CC1 :: 1 (yes)
4) Cc1ccccc1NC(=O)NCC1CCN(Cc2cccc(Cl)c2)CC1 :: 0 (no)

Kindly consider the entry below.
What did the test return for CCCc1nc2ccccc2c(C(=O)OCc2nnc(-c3cc(OC)c(OC)c(OC)c3)o2)c1CC ?
0 (no)

----------
- target.or.system: Oxytocin receptor (Homo sapiens) (UniProt P30559)
- protocol: oxytocin receptor activation by calcium flux – fluorescence, CHO-OTR cells, Fluo-8 calcium, primary screen (AID 2435);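 further: peak over basal fluorescence ratio from a 100 s FLIPR kinetic read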
- assay.conditions: Fluo-8 calcium fluorescence, at 3 µM, normalized: DMSO 0%, oxytocin 100%
Out of some 320,000 compounds screened, about 1,000 (0.31%) were called active.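 Rule for the calls: active = activation above the mean of all tested compounds plus 3 SD, cutoff set per screening run (cut at about 20% in these data); inactive = the rest.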 The entries come from a sample that favours actives as a whole.
Outcome (select one): active, inactive

1. COc1cc(NC(=O)CSC(=S)N2CCCC2)c(OC)cc1Cl :: inactive

Query: recorded result category for COC(=O)c1ccc(COC(=O)C2CCN(S(=O)(=O)c3c(Cl)cccc3Cl)CC2)o1 in this test
inactive

Which outcome was assigned to CC(C)(C)c1ccc(/C=C/C(=O)Nc2ncccn2)cc1 in this test?
inactive

Could you kindly confirm the outcome this assay logged for O=C(NNC(=S)NC(=O)c1cn(-c2ccccc2)nc1-c1ccccc1)c1ccncc1 ?
active

Each compound tested received a call. Report the one for Cn1cccc1C1(C(F)(F)F)NCCNC1=O (configuration not stated) .
inactive

Recorded test outcome, item Cc1ccc(-c2cc(C(=O)NN)n[nH]2)o1
inactive
